Give Activity for every item shown.
Tested on: Cricetinae gen. sp.
Assay: In vivo triglyceride lowering activity in fat-fed hamsters at a dose of 3 mg/kg, po for 7 days
Format: functional
Give bare numbers, in %.

// below: answered molecules
CC(C)(Sc1ccc(CCN(CCc2ccc(-c3ccccc3)cc2)C(=O)NC2CCCCC2)cc1)C(=O)O | -70
CCCCCCCN(CCc1ccc(SC(C)(C)C(=O)O)cc1)C(=O)Nc1ccc(F)cc1F [GSK-9578] | -88

Your task in this section: give Activity for each listed record.
1. CC(C)(Sc1ccc(CCN(CCCCC2CCCCC2)C(=O)Nc2cccc(C#N)c2)cc1)C(=O)O
2. Cc1ccc(NC(=O)N(CCCCC2CCCCC2)CCc2ccc(SC(C)(C)C(=O)O)cc2)cc1[N+](=O)[O-]
3. COc1ccc(C)cc1NC(=O)N(CCc1ccc(SC(C)(C)C(=O)O)cc1)CCc1ccc(-c2ccccc2)cc1
4. CC(C)(Sc1ccc(CCN(CCCCC2CCCCC2)C(=O)NC2CCCCC2)cc1)C(=O)O [GW7647]

1. -69
2. -78
3. -33
4. -93
